# Lookup of reported MIC80 keyed by entry
# Tested on: Candida albicans
# assay comment: Antifungal activity against fluconazole-resistant Candida albicans clinical isolate 311 assessed as inhibition of fungal growth by CLSI M27-A3 guidelines based method
# Format: functional

{"compound": "CN(Cc1ccc(N2CCN(Cc3ccc(F)cc3Br)CC2)cc1)CC(O)(Cn1cncn1)c1ccc(F)cc1F (stereo not given)", "value relation sign": "=", "MIC80 [µg/mL]": 8}
{"compound": "CN(Cc1ccc(N2CCN(Cc3cccc(Br)c3)CC2)cc1)CC(O)(Cn1cncn1)c1ccc(F)cc1F (stereo not given)", "value relation sign": "=", "MIC80 [µg/mL]": 32}
{"compound": "OC(Cn1cncn1)(Cn1cncn1)c1ccc(F)cc1F [FLUCONAZOLE]", "value relation sign": ">", "MIC80 [µg/mL]": 64}
{"compound": "CN(Cc1ccc(N2CCN(Cc3ccc(C(C)(C)C)cc3)CC2)cc1)CC(O)(Cn1cncn1)c1ccc(F)cc1F (stereo not given)", "value relation sign": "=", "MIC80 [µg/mL]": 8}
{"compound": "CN(Cc1ccc(N2CCN(Cc3ccc(OC(F)(F)F)cc3)CC2)cc1)CC(O)(Cn1cncn1)c1ccc(F)cc1F (stereo not given)", "value relation sign": ">", "MIC80 [µg/mL]": 64}
{"compound": "CN(Cc1ccc(I)cc1)CC(O)(Cn1cncn1)c1ccc(F)cc1F (stereo not given)", "value relation sign": ">", "MIC80 [µg/mL]": 64}
{"compound": "CN(Cc1ccc(N2CCN(Cc3cc(F)ccc3Br)CC2)cc1)CC(O)(Cn1cncn1)c1ccc(F)cc1F (stereo not given)", "value relation sign": "=", "MIC80 [µg/mL]": 32}
{"compound": "CN(Cc1ccc(N2CCN(Cc3ccccc3Br)CC2)cc1)CC(O)(Cn1cncn1)c1ccc(F)cc1F (stereo not given)", "value relation sign": "=", "MIC80 [µg/mL]": 32}
{"compound": "CN(Cc1ccc(N2CCN(Cc3ccc(Cl)cc3Br)CC2)cc1)CC(O)(Cn1cncn1)c1ccc(F)cc1F (stereo not given)", "value relation sign": ">", "MIC80 [µg/mL]": 64}
{"compound": "CN(Cc1ccc(N2CCN(Cc3ccc(C(F)(F)F)cc3)CC2)cc1)CC(O)(Cn1cncn1)c1ccc(F)cc1F (stereo not given)", "value relation sign": "=", "MIC80 [µg/mL]": 32}
